target: HIV-1 reverse transcriptase (Human immunodeficiency virus type 1 group M subtype B, UniProt P04585); construct: virion associated HIV-1 IIIB reverse transcriptase; endogenous in cells; host or cells: HIV-1 IIIB virions lysed in Triton X-100; assay: HIV-1 reverse transcriptase assay; type: biochemical, HIV-1 IIIB; settings: Table 1; inhibit 50% of HIV-1 RT activity; read-out: HIV-RT Assay IC50
Listing of entries alongside the reported IC50.

[
  {
    "Compound": "CC(C)[C@@H]1CC[C@]2(C(=O)O)CC[C@]3(C)[C@H](CC[C@@H]4[C@@]5(C)CC[C@H](OC(=O)COCC(=O)O)C(C)(C)[C@@H]5CC[C@]43C)[C@@H]12 [Compound 10, 3-O-diglycolyl-dihydrobetulinic acid]",
    "Reported value": "> 174 µM"
  }
]

Answer with the recorded IC50 for the compound listed here: `C=C(C)[C@@H]1CC[C@]2(C(=O)O)CC[C@]3(C)[C@H](CC[C@@H]4[C@@]5(C)CC[C@H](OC(=O)COCC(=O)O)C(C)(C)[C@@H]5CC[C@]43C)[C@@H]12`
> 175 µM

Fill in reported IC50 for this entry: `C=C(C)[C@@H]1CC[C@]2(C(=O)O)CC[C@]3(C)[C@H](CC[C@@H]4[C@@]5(C)CC[C@H](OC(=O)CC(C)(C)CC(=O)O)C(C)(C)[C@@H]5CC[C@]43C)[C@@H]12`
> 167 µM
